meta.source: patent US8399451B2

Target: S1P1 (Homo sapiens, UniProt P21453)
Sequence (P21453 whole entry): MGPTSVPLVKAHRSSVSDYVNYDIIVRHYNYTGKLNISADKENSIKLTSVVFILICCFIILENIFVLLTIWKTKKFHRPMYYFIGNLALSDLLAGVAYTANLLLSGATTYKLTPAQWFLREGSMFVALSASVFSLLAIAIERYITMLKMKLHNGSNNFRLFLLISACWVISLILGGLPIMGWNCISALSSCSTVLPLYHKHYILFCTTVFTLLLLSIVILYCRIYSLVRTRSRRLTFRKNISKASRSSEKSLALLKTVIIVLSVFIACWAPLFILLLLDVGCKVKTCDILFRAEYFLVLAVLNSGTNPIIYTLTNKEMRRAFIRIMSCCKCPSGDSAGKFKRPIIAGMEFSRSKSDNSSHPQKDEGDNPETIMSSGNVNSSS
Assay: Receptor [35S] GTPγS Binding Assay, membranes from S1P1/CHO cells
Assay type: biochemical
Set-up: expressed in transfected cells; host or cells: S1P1/CHO cells
Details: read-out: S1P1 GTPγS EC50 value
reported_property: EC50 (µM)
One number for each entry, in µM.

Exam item: Please report the recorded EC50 for CCCc1c(-c2nc(-c3ccc(CCN4CCC[C@H](C(=O)O)C4)cc3)no2)noc1-c1ccccc1 [Comparative Compound 119, reference compound] .
Marked response: 31

---

Molecular target: S1P1 (Homo sapiens)
For each of the molecules below, state its IC50.
Numbers only, in nM.

Solved cases below.
molecule	unit	observed_result
O=C(O)CC1CN(CC(O)c2ccc(-c3noc(-c4onc(-c5ccccc5)c4C(F)(F)F)n3)cc2)C1 (stereo not shown) [Example 27]	nM	14
CCCc1c(-c2nc(-c3ccc(C(O)CN4CC(C(=O)O)C4)cc3)no2)noc1-c1ccccc1 (stereo not shown) [Example 1]	nM	0.45

Answer for every listed entry: what is its IC50? The entries follow.
1. CCCc1c(-c2nc(-c3ccc(CCN4CCC[C@H](C(=O)O)C4)cc3)no2)noc1-c1ccccc1 [Comparative Compound 119, reference compound]
2. CC(O)(CN1CCC[C@H](C(=O)O)C1)c1ccc(-c2noc(-c3onc(-c4ccccc4)c3C(F)(F)F)n2)cc1 (stereo partly shown) [Example 17]

Marked response:
1: 420; 2: 28

---

Molecular target: S1P1 (Homo sapiens)
Assay: Receptor [35S] GTPγS Binding Assay, membranes from S1P1/CHO cells
Assay type: biochemical
Parameters: expressed in transfected cells; host or cells: S1P1/CHO cells
Settings: membranes from S1P1/CHO cells; read-out: S1P1 GTPγS EC50
Structures can show the parent of a compound that is named as a salt.
reported_property: pEC50
Numbers only, as −log10 of the molar value.

compound	reported_property	observed_result
O=C(O)[C@H]1CCCN(CC(O)c2ccc(-c3noc(-c4ccc(-c5ccccn5)s4)n3)cc2)C1 (some centres unmarked)	pEC50	6.44
Cc1ccc(-n2ncc(-c3nc(-c4ccc([C@H](O)CN5CCC[C@H](CC(=O)O)C5)cc4)no3)c2C(F)(F)F)nc1	pEC50	8.07

Quick batch: pEC50 for everything below.
1. Cl.O=C(O)C[C@H]1CCCN(C[C@@H](O)c2ccc(-c3noc(-c4cnn(-c5ccc(F)cn5)c4C(F)(F)F)n3)cc2)C1 [Example 82, HCl]
2. O=C(O)C[C@H]1CCCN(C[C@@H](O)c2ccc(-c3noc(-c4cnn(-c5ccc(F)cc5F)c4C(F)(F)F)n3)cc2)C1 [Example 73, HCl]
3. CCCc1c(-c2nc(-c3ccc(C(O)CN4CCCC(C(=O)N(CC)CC)C4)cc3)no2)noc1-c1ccccc1 (centres unmarked)
4. O=C(O)[C@H]1CCCN(C[C@@H](O)c2ccc(-c3noc(-c4cnn(-c5ccc(C(F)(F)F)cn5)c4C(F)(F)F)n3)cc2)C1 [Example 98, HCl]
5. CC(O)(CN1CCC[C@H](C(=O)O)C1)c1ccc(-c2noc(-c3onc(-c4ccccc4)c3C(F)(F)F)n2)cc1 (some centres unmarked)
6. O=C(O)C[C@H]1CCCN(C[C@@H](O)c2ccc(-c3noc(-c4cnn(-c5ccccc5Cl)c4C(F)(F)F)n3)cc2)C1 [Example 72, HCl]

Marked response:
1: 8.52; 2: 8.68; 3: 6.39; 4: 8.52; 5: 6.49; 6: 8.44

Field: pEC50. Fill in for each record below.
1. O=C(O)[C@H]1CCCN(C[C@@H](O)c2ccc(-c3noc(-c4cnn(C5CCCCC5)c4C(F)(F)F)n3)cc2)C1
2. O=C(O)C[C@H]1CCCN(C[C@@H](O)c2ccc(-c3noc(-c4cnn(-c5ccc(Cl)cn5)c4C(F)(F)F)n3)cc2)C1 [Example 70, HCl]
3. O=C(O)C[C@H]1CCCN(C[C@@H](O)c2ccc(-c3noc(-c4cnn(C5CCCCC5)c4C(F)(F)F)n3)cc2)C1 [Example 59, HCl]

Marked response:
[9.00, 8.92, 8.74]

---

Molecular target: S1P3 (Homo sapiens, UniProt Q99500)
Sequence (Q99500 whole entry): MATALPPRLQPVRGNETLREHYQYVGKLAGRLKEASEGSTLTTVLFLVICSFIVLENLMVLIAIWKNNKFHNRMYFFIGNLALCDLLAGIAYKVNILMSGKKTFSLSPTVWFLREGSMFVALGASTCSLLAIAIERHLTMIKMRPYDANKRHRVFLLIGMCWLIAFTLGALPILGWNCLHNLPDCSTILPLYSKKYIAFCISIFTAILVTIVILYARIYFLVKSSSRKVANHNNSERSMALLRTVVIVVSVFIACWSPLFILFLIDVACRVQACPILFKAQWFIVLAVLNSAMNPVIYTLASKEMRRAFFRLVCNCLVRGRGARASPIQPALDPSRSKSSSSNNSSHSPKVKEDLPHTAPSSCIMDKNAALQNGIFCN
Test: Receptor [35S] GTPγS Binding Assay, membranes from EDG3-Ga15-bla HEK293T cells
Settings: * detection limit 31,000 nM or 62,000 nM
Counter-ions that a name gives are not always drawn.
reported_property: pEC50
Answers are plain numbers, as −log10 of the molar value.

The cases that follow already have their pEC50 on record.
molecule	pEC50
O=C(O)[C@H]1CCCN(C[C@@H](O)c2ccc(-c3noc(-c4cnn(C5CCCCC5)c4C(F)(F)F)n3)cc2)C1	5.65
O=C(O)[C@H]1CCCN(C[C@@H](O)c2ccc(-c3noc(-c4cnn(-c5ccc(C(F)(F)F)cn5)c4C(F)(F)F)n3)cc2)C1 [Example 98, HCl]	5.48
O=C(O)C[C@H]1CCCN(C[C@@H](O)c2ccc(-c3noc(-c4cnn(-c5ccccc5Cl)c4C(F)(F)F)n3)cc2)C1 [Example 72, HCl]	4.61

// for each molecule in input: emit pEC50
1. O=C(O)C[C@H]1CCCN(C[C@@H](O)c2ccc(-c3noc(-c4cnn(-c5ccc(Cl)cn5)c4C(F)(F)F)n3)cc2)C1 [Example 70, HCl]
2. Cl.O=C(O)C[C@H]1CCCN(C[C@@H](O)c2ccc(-c3noc(-c4cnn(-c5ccc(F)cn5)c4C(F)(F)F)n3)cc2)C1 [Example 82, HCl]
3. O=C(O)C[C@H]1CCCN(C[C@@H](O)c2ccc(-c3noc(-c4cnn(-c5ccc(F)cc5F)c4C(F)(F)F)n3)cc2)C1 [Example 73, HCl]
4. Cc1nc(-c2ccccc2)sc1-c1nc(-c2ccc(C(O)CN3CCC[C@H](C(=O)O)C3)cc2)no1 (stereo partly shown)
5. CC(O)(CN1CCC[C@H](C(=O)O)C1)c1ccc(-c2noc(-c3onc(-c4ccccc4)c3C(F)(F)F)n2)cc1 (stereo partly shown)
6. O=C(O)C[C@H]1CCCN(C[C@@H](O)c2ccc(-c3noc(-c4cnn(C5CCCCC5)c4C(F)(F)F)n3)cc2)C1 [Example 59, HCl]

Marked response:
[4.98, 5.22, 5.66, 5.09, 5.92, 5.68]

---

For each record, write down the corresponding pEC50.
Target: S1P3 (Homo sapiens)
Experiment: Receptor [35S] GTPγS Binding Assay, membranes from EDG3-Ga15-bla HEK293T cells
Conditions: * detection limit 31,000 nM or 62,000 nM
pEC50: −log10 of the molar value. Counter-ions that a name gives are not always drawn.

Example entries and their recorded answers appear below.
molecule	observed_result
O=C(O)[C@H]1CCCN(CC(O)c2ccc(-c3noc(-c4ccc(-c5ccccn5)s4)n3)cc2)C1 (stereo partly drawn)	< 4.21
O=C(O)[C@H]1CCCN(C[C@@H](O)c2ccc(-c3noc(-c4cnn(-c5ncc(Cl)cc5Cl)c4C(F)(F)F)n3)cc2)C1 [Example 100, HCl]	< 4.51

Exam item: I am curious: what pEC50 value has been reported for O=C(O)[C@H]1CCCN(CC(O)c2ccc(-c3noc(-c4cc(-c5ccc(Cl)cc5)on4)n3)cc2)C1 (stereo partly drawn) ?
Marked response: < 4.51

---

Target: S1P3 (Homo sapiens, UniProt Q99500)
Assay: Receptor [35S] GTPγS Binding Assay, membranes from EDG3-Ga15-bla HEK293T cells
Settings: * detection limit 31,000 nM or 62,000 nM
reported_property: EC50

Example cases with answers are listed next.
compound	assay_system	observed_result
O=C(O)[C@H]1CCCN(C[C@@H](O)c2ccc(-c3noc(-c4cnn(-c5ccccn5)c4C(F)(F)F)n3)cc2)C1	S1P3 (Homo sapiens, UniProt Q99500)	> 31 µM
Cc1cccc(-c2noc(-c3nc(-c4ccc(C(O)CN5CCC[C@H](C(=O)O)C5)cc4)no3)c2C(F)(F)F)n1 (stereo partly shown)	S1P3 (Homo sapiens, UniProt Q99500)	> 62 µM
CCCc1c(-c2nc(-c3ccc(CCN4CCC[C@H](C(=O)O)C4)cc3)no2)noc1-c1ccccc1 [Comparative Compound 119, reference compound]	S1P3 (Homo sapiens, UniProt Q99500)	> 62 µM

We next turn to a different compound, shown below.
Exam item: I have this compound here, O=C(O)C[C@H]1CCCN(C[C@@H](O)c2ccc(-c3noc(-c4ncn(-c5ccc(Cl)cc5)c4C(F)(F)F)n3)cc2)C1 , and I need its recorded EC50.
Marked response: > 62 µM
